assayed.target: B. subtilis RNAP (Bacillus subtilis, UniProt P37870+P37871)
Construct: endogenous in cells; host or cells: Bacillus subtilis strain PL37 (built from strain 168)
Sequence (P37871 whole entry): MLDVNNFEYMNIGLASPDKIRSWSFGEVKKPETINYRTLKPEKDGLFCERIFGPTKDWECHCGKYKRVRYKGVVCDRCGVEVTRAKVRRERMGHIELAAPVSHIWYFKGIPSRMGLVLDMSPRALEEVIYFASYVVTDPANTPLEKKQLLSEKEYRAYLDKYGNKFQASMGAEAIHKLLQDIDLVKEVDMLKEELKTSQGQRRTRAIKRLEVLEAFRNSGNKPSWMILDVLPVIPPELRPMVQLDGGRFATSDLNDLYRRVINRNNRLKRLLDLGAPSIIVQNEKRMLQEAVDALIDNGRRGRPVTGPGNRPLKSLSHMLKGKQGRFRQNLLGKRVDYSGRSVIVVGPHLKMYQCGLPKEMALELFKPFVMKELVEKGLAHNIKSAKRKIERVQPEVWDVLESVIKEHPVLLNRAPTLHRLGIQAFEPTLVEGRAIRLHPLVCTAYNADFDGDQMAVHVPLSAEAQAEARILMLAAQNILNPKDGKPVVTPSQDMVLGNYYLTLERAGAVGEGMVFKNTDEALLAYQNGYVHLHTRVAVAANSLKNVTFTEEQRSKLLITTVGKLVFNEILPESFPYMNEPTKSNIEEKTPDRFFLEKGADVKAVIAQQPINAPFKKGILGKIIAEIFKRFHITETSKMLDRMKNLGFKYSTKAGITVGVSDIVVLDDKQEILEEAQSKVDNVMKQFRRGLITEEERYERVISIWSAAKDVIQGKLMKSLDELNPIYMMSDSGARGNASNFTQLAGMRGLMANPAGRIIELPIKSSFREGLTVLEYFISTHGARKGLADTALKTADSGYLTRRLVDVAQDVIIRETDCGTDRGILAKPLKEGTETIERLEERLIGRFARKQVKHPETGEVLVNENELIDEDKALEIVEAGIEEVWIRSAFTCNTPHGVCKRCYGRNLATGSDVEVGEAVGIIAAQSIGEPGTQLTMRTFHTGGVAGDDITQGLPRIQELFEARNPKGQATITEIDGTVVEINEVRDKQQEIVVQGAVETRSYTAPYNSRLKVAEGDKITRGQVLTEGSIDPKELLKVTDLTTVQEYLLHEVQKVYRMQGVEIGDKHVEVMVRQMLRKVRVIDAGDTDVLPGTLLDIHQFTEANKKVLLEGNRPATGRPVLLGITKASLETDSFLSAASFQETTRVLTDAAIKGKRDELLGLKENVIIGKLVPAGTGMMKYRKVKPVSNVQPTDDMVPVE
Sequence (P20429 whole entry, further chain): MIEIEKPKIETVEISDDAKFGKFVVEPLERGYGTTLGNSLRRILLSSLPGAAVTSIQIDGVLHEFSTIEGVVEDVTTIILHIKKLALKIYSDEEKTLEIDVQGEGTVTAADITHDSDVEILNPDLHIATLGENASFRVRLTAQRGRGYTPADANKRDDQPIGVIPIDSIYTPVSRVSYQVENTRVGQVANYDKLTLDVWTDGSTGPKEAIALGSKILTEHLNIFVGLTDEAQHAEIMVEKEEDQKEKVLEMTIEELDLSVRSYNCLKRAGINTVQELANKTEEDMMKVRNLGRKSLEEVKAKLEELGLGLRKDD
Sequence (O35011 whole entry, further chain): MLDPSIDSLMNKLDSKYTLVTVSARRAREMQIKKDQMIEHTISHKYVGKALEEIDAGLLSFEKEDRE
Sequence (P37870 whole entry): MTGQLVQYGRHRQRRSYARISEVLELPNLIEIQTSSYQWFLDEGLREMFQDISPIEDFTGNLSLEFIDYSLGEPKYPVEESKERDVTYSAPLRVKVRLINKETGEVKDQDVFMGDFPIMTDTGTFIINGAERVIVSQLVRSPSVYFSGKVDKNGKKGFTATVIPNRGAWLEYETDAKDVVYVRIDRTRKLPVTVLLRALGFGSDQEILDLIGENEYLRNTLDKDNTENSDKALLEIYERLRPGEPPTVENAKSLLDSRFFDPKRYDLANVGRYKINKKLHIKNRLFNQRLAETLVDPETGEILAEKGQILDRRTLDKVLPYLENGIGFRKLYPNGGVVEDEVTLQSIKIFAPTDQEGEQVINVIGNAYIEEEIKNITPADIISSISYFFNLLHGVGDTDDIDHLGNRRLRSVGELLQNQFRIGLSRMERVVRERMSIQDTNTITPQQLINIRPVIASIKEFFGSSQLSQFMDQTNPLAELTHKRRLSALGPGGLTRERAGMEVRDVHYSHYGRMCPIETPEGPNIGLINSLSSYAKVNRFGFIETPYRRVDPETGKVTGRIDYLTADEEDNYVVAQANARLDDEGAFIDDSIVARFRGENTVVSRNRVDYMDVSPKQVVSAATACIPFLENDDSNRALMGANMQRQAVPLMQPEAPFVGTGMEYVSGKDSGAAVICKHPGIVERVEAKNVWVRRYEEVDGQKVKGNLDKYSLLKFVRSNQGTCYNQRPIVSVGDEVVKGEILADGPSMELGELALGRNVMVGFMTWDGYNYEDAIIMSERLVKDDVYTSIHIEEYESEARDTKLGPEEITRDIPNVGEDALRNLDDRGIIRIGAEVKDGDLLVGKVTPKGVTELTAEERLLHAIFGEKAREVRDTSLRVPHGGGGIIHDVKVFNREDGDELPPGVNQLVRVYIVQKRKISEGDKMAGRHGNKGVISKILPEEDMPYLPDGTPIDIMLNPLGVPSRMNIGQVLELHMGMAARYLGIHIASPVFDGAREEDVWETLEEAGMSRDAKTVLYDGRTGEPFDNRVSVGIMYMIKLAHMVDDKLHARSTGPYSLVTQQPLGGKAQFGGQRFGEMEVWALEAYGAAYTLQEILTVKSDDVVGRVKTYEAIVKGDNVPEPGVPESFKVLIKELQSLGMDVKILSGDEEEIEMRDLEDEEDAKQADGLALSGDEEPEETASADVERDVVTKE
protocol.text: Dual reporter assay in strain PL37: test reporter Pxyl-lacZ and ratio of control to test reporter (RES:MUG)
Assay type: cell-based
particulars: strain PL37; Dilution Number 7; DMSO control […]
property: Ratio of the control reporter (RES): test reporter (MUG)
// no unit, no text: just the number

molecule	reported.measurement
CN[C@H](CC(C)C)C(=O)N[C@H]1C(=O)N[C@@H](CC(N)=O)C(=O)N[C@H]2C(=O)N[C@H]3C(=O)N[C@H](C(=O)N[C@H](C(=O)O)c4cc(O)cc(O)c4-c4cc3ccc4O)[C@H](O)c3ccc(c(Cl)c3)Oc3cc2cc(c3O[C@@H]2O[C@H](CO)[C@@H](O)[C@H](O)[C@H]2O[C@H]2C[C@](C)(N)[C@H](O)[C@H](C)O2)Oc2ccc(cc2Cl)[C@H]1O	1.03

Let us examine a further case.
Give the measured Ratio of the control reporter (RES): test reporter (MUG) of CC1(C)S[C@@H]2[C@H](NC(=O)C(C(=O)O)c3ccccc3)C(=O)N2[C@H]1C(=O)O (some centres unmarked) .
1.60

* * *

assayed.target: B. subtilis RNAP (Bacillus subtilis, UniProt P37870+P37871)
Construct: endogenous in cells; host or cells: Bacillus subtilis strain PL37 (built from strain 168)
protocol.text: Dual reporter assay in strain PL37: test reporter Pxyl-lacZ and ratio of control to test reporter (RES:MUG)
Type: cell-based
particulars: strain PL37; Dilution Number 1 (highest concentration tested: 128, 16 or 0.5 μg/ml depending on antibiotic); DMSO control […]
Positions of bridges follow the written chain, without caps; N, C: chain ends. Non-standard residues stand in square brackets, D forms with d. Residues, ends and D or L forms follow the SMILES beside them. *: point of attachment. Ileψ(thiazoline)Cys = CC[C@H](C)[C@H](N)C1=N[C@H](C(=O)*)CS1; dOrn = NCCC[C@@H](N)C(=O)O
Listed here: items and their measured Ratio of the control reporter (RES): test reporter (MUG).
// no unit, no text: just the number

Consider the reported Ratio of the control reporter (RES): test reporter (MUG) for these compounds:
compound	reported.measurement
CC1=C(C(=O)O)N2C(=O)[C@@H](NC(=O)[C@H](N)c3ccccc3)[C@H]2SC1	1.73
CC[C@H](C)[C@H](N)C1=N[C@H](C(=O)N[C@@H](CC(C)C)C(=O)N[C@H](CCC(=O)O)C(=O)N[C@H](C(=O)N[C@H]2CCCCNC(=O)[C@H](CC(N)=O)NC(=O)[C@@H](CC(=O)O)NC(=O)[C@H](Cc3cnc[nH]3)NC(=O)[C@@H](Cc3ccccc3)NC(=O)[C@H]([C@@H](C)CC)NC(=O)[C@@H](CCCN)NC2=O)[C@@H](C)CC)CS1 [Bacitracin] ({Ileψ(thiazoline)Cys}-L[dE]IK[dOrn]I[dF]H[dD]N; lactam 4-C)	1.32
CCn1cc(C(=O)O)c(=O)c2cc3c(cc21)OCO3	0.89
CCn1cc(C(=O)O)c(=O)c2ccc(C)nc21	1.50
CO[C@@H]1[C@@H](OC(N)=O)[C@@H](O)[C@H](Oc2ccc3c(O)c(NC(=O)c4ccc(O)c(CC=C(C)C)c4)c(=O)oc3c2C)OC1(C)C	1.33

Give the measured Ratio of the control reporter (RES): test reporter (MUG) of `CNC(=O)[C@@H](C)[C@H]1C(=O)/C(=C(O)/C=C/C(C)=C/[C@@H](C)[C@H]2O[C@@]3(C)O[C@H](C=C[C@@]34CO4)[C@@H]2C)C(=O)N1[C@@H]1CC[C@H](O)[C@H](C)O1` .
16.44

Give the measured Ratio of the control reporter (RES): test reporter (MUG) of `CCC[C@@H]1C[C@@H](C(=O)N[C@@H]([C@H]2O[C@H](SC)[C@H](O)[C@@H](O)[C@H]2O)[C@@H](C)O)N(C)C1` .
1.09
